# Test system: Klebsiella pneumoniae ATCC 10031
# Assay text: MIC, Klebsiella pneumoniae ATCC 10031
# Assay type: cell-based
# Measurement setup: ATCC10031; Klebsiella pneumoniae ATCC 10031; read-out: MIC
Overview of reported MIC across a group of compounds:
Note to self: number, then unit, no commentary.

>  <Compound>
CCC1OC(=O)CC(O)C(C)C(OC2OC(C)C(O)C(N(C)C)C2O)C(CC=O)CC(C)C(=O)C=CC(C)=CC1COCc1ccccc1 (stereo not drawn)

>  <Property name>
MIC

>  <Experimental value>
6.3 µg/mL

$$$$

MIC reported for this compound CCc1ccc(OCC2C=C(C)C=CC(=O)C(C)CC(CC=O)C(OC3OC(C)C(O)C(N(C)C)C3O)C(C)C(O)CC(=O)OC2CC)cc1 (stereo not drawn) : 6.3 µg/mL

Looking up CCC1OC(=O)CC(O)C(C)C(OC2OC(C)C(O)C(N(C)C)C2O)C(CC=O)CC(C)C(=O)C=CC(C)=CC1COc1ccc(C)cc1 (stereo not drawn) , I found its MIC recorded as 6.3 µg/mL

====

# System: Staphylococcus aureus MS353
# Assay text: MIC, Staphylococcus aureus MS353
# Format: cell-based
# Measurement setup: Staphylococcus aureus MS353; read-out: MIC
Collected MIC values appear next to each entry.

Worked cases, answers included:
>  <Molecule>
CCC1OC(=O)CC(O)C(C)C(OC2OC(C)C(O)C(N(C)C)C2O)C(CC=O)CC(C)C(=O)C=CC(C)=CC1CSCc1ccccc1 (stereo not drawn)

>  <Experimental value>
≤ 0.05 µg/mL

$$$$
>  <Molecule>
CCC1OC(=O)CC(O)C(C)C(OC2OC(C)C(O)C(N(C)C)C2O)C(CC=O)CC(C)C(=O)C=CC(C)=CC1COc1cccc(N(CC)CC)c1 (stereo not drawn)

>  <Experimental value>
0.4 µg/mL

$$$$
>  <Molecule>
CCC1OC(=O)CC(O)C(C)C(OC2OC(C)C(O)C(N(C)C)C2O)C(CC=O)CC(C)C(=O)C=CC(C)=CC1COc1ccccc1 (stereo not drawn)

>  <Experimental value>
≤ 0.05 µg/mL

$$$$
>  <Molecule>
CCC1OC(=O)CC(O)C(C)C(OC2OC(C)C(O)C(N(C)C)C2O)C(CC=O)CC(C)C(=O)C=CC(C)=CC1COc1ccc(C)cc1 (stereo not drawn)

>  <Experimental value>
0.2 µg/mL

$$$$
>  <Molecule>
CCC1OC(=O)CC(O)C(C)C(OC2OC(C)C(O)C(N(C)C)C2O)C(CC=O)CC(C)C(=O)C=CC(C)=CC1COCc1ccccc1 (stereo not drawn)

>  <Experimental value>
≤ 0.05 µg/mL

$$$$

For record CCC1OC(=O)CC(O)C(C)C(OC2OC(C)C(O)C(N(C)C)C2O)C(CC=O)CC(C)C(=O)C=CC(C)=CC1COc1ccc(Cl)cc1 (stereo not drawn) the listed MIC is 0.1 µg/mL

====

# MIC annotations
# Test system: Staphylococcus epidermis sp-al-1
# Assay text: MIC, Staphylococcus epidermis sp-al-1
# Format: cell-based
# Measurement setup: SPAL1; Staphylococcus epidermis sp-al-1; read-out: MIC

Some solved cases for reference:
>  <Compound>
CCC1OC(=O)CC(O)C(C)C(OC2OC(C)C(O)C(N(C)C)C2O)C(CC=O)CC(C)C(=O)C=CC(C)=CC1COc1ccc(OC)cc1 (stereo not drawn)

>  <MIC>
≤ 0.05 µg/mL

$$$$
>  <Compound>
CCC1OC(=O)CC(O)C(C)C(OC2OC(C)C(O)C(N(C)C)C2O)C(CC=O)CC(C)C(=O)C=CC(C)=CC1CSCCc1ccccc1 (stereo not drawn)

>  <MIC>
≤ 0.05 µg/mL

$$$$
>  <Compound>
CCC1OC(=O)CC(O)C(C)C(OC2OC(C)C(O)C(N(C)C)C2O)C(CC=O)CC(C)C(=O)C=CC(C)=CC1COc1ccccc1 (stereo not drawn)

>  <MIC>
≤ 0.05 µg/mL

$$$$
>  <Compound>
CCC1OC(=O)CC(O)C(C)C(OC2OC(C)C(O)C(N(C)C)C2O)C(CC=O)CC(C)C(=O)C=CC(C)=CC1COc1ccc(C)cc1 (stereo not drawn)

>  <MIC>
≤ 0.05 µg/mL

$$$$
>  <Compound>
CCC1OC(=O)CC(O)C(C)C(OC2OC(C)C(O)C(N(C)C)C2O)C(CC=O)CC(C)C(=O)C=CC(C)=CC1COc1cccc(N(CC)CC)c1 (stereo not drawn)

>  <MIC>
0.2 µg/mL

$$$$
>  <Compound>
CCC1OC(=O)CC(O)C(C)C(OC2OC(C)C(O)C(N(C)C)C2O)C(CC=O)CC(C)C(=O)C=CC(C)=CC1COc1cccc([N+](=O)[O-])c1 (stereo not drawn)

>  <MIC>
≤ 0.05 µg/mL

$$$$
>  <Compound>
CCC1OC(=O)CC(O)C(C)C(OC2OC(C)C(O)C(N(C)C)C2O)C(CC=O)CC(C)C(=O)C=CC(C)=CC1COc1ccc(Br)cc1 (stereo not drawn)

>  <MIC>
0.1 µg/mL

$$$$
>  <Compound>
CCc1ccc(OCC2C=C(C)C=CC(=O)C(C)CC(CC=O)C(OC3OC(C)C(O)C(N(C)C)C3O)C(C)C(O)CC(=O)OC2CC)cc1 (stereo not drawn)

>  <MIC>
0.2 µg/mL

$$$$

Value of MIC reported for the compound CCC1OC(=O)CC(O)C(C)C(OC2OC(C)C(O)C(N(C)C)C2O)C(CC=O)CC(C)C(=O)C=CC(C)=CC1COC(c1ccccc1)(c1ccccc1)c1ccccc1 (stereo not drawn) is 1.6 µg/mL

// sample CCC1OC(=O)CC(O)C(C)C(OC2OC(C)C(O)C(N(C)C)C2O)C(CC=O)CC(C)C(=O)C=CC(C)=CC1COc1ccc(Cl)cc1 (stereo not drawn) , its MIC was ≤ 0.05 µg/mL

Input CCC1OC(=O)CC(O)C(C)C(OC2OC(C)C(O)C(N(C)C)C2O)C(CC=O)CC(C)C(=O)C=CC(C)=CC1COc1ccc(Cl)cc1Cl (stereo not drawn) . Output MIC: ≤ 0.05 µg/mL

Kindly note the recorded MIC for CCC1OC(=O)CC(O)C(C)C(OC2OC(C)C(O)C(N(C)C)C2O)C(CC=O)CC(C)C(=O)C=CC(C)=CC1CSC(C)c1ccccc1 (stereo not drawn) , which is ≤ 0.05 µg/mL

====

# Tested on: Micrococcus flavus ATCC 10240
# Assay text: MIC, Micrococcus flavus ATCC 10240
# Assay type: cell-based
# Measurement setup: ATCC10240; Micrococcus flavus ATCC 10240; read-out: MIC
Property name: MIC

Some solved entries appear below for comparison.
>  <Compound>
CCC1OC(=O)CC(O)C(C)C(OC2OC(C)C(O)C(N(C)C)C2O)C(CC=O)CC(C)C(=O)C=CC(C)=CC1COc1ccc(Cl)cc1 (centres unmarked)

>  <Property name>
MIC

>  <Experimental value>
≤ 0.05 µg/mL

$$$$
>  <Compound>
CCC1OC(=O)CC(O)C(C)C(OC2OC(C)C(O)C(N(C)C)C2O)C(CC=O)CC(C)C(=O)C=CC(C)=CC1COc1ccc(Br)cc1 (centres unmarked)

>  <Property name>
MIC

>  <Experimental value>
≤ 0.05 µg/mL

$$$$
>  <Compound>
CCC1OC(=O)CC(O)C(C)C(OC2OC(C)C(O)C(N(C)C)C2O)C(CC=O)CC(C)C(=O)C=CC(C)=CC1COc1ccc(C)cc1 (centres unmarked)

>  <Property name>
MIC

>  <Experimental value>
≤ 0.05 µg/mL

$$$$
>  <Compound>
CCC1OC(=O)CC(O)C(C)C(OC2OC(C)C(O)C(N(C)C)C2O)C(CC=O)CC(C)C(=O)C=CC(C)=CC1COc1cccc(N(CC)CC)c1 (centres unmarked)

>  <Property name>
MIC

>  <Experimental value>
0.1 µg/mL

$$$$

Now for the compound whose MIC we want.
Lookup result for CCC1OC(=O)CC(O)C(C)C(OC2OC(C)C(O)C(N(C)C)C2O)C(CC=O)CC(C)C(=O)C=CC(C)=CC1COc1ccccc1 (centres unmarked) ; measured MIC: ≤ 0.05 µg/mL

====

# MIC listing for each entry below
# System: Corynebacterium diptheriae P.Y.8
# Assay text: MIC, Corynebacterium diptheriae P.Y.8
# Format: cell-based
# Measurement setup: Corynebacterium diptheriae P.Y.8; read-out: MIC

Record CCC1OC(=O)CC(O)C(C)C(OC2OC(C)C(O)C(N(C)C)C2O)C(CC=O)CC(C)C(=O)C=CC(C)=CC1COc1ccc(Br)cc1 (stereo not drawn) / Corynebacterium diptheriae P.Y.8, MIC recorded as ≤ 0.05 mg/L

Tested on Corynebacterium diptheriae P.Y.8: CCC1OC(=O)CC(O)C(C)C(OC2OC(C)C(O)C(N(C)C)C2O)C(CC=O)CC(C)C(=O)C=CC(C)=CC1COC(c1ccccc1)(c1ccccc1)c1ccccc1 (stereo not drawn) [OC(C6 H5)3] . Observed MIC: 0.1 mg/L

Item CCC1OC(=O)CC(O)C(C)C(OC2OC(C)C(O)C(N(C)C)C2O)C(CC=O)CC(C)C(=O)C=CC(C)=CC1COc1ccc(OC)cc1 (stereo not drawn) was tested on Corynebacterium diptheriae P.Y.8; the reported MIC is ≤ 0.05 mg/L

Measured MIC (Corynebacterium diptheriae P.Y.8), entry CCC1OC(=O)CC(O)C(C)C(OC2OC(C)C(O)C(N(C)C)C2O)C(CC=O)CC(C)C(=O)C=CC(C)=CC1COc1ccccc1 (stereo not drawn) : ≤ 0.05 mg/L

Corynebacterium diptheriae P.Y.8 data for CCC1OC(=O)CC(O)C(C)C(OC2OC(C)C(O)C(N(C)C)C2O)C(CC=O)CC(C)C(=O)C=CC(C)=CC1CSCc1ccccc1 (stereo not drawn) [SCH2 C6 H5] ; its MIC: ≤ 0.05 mg/L

Measured MIC (Corynebacterium diptheriae P.Y.8), entry CCC1OC(=O)CC(O)C(C)C(OC2OC(C)C(O)C(N(C)C)C2O)C(CC=O)CC(C)C(=O)C=CC(C)=CC1COc1ccc(Cl)cc1 (stereo not drawn) : ≤ 0.05 mg/L
